Sourced from paper PMC12486805

- assayed_target: CYP2D6 (Homo sapiens, UniProt P10635)
- Sequence (P10635 whole entry, canonical isoform): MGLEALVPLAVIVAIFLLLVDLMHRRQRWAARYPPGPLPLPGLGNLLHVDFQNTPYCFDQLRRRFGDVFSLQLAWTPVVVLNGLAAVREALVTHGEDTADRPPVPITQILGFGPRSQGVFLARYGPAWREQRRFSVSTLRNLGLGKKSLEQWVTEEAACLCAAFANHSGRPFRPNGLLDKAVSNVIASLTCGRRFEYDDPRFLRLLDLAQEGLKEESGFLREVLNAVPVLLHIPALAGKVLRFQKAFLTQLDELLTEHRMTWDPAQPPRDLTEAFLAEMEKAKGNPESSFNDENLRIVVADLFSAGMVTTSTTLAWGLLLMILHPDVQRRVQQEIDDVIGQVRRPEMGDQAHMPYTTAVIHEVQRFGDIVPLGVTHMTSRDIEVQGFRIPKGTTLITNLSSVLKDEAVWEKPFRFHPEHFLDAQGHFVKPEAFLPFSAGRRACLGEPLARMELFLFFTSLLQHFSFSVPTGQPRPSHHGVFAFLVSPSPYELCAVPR
- assay_method_text: CYP inhibition assay, recombinant isoform, fluorescence
- Assay type: biochemical
- experimental_parameters: human, recombinant CYP2D6
value_kind: inhibition at 25 min, 0.003 µM

# input Would you mind telling me what inhibition at 25 min, 0.003 µM value was observed for C=C[C@H]1C[N@@]2CC[C@H]1C[C@@H]2[C@@H](O)c1ccnc2ccc(OC)cc12 [Quinidine, reference compound] ?
# output 52.4%

---

- assay_method_text: in vitro
- experimental_parameters: rat, plasma, % Binding to Plasma Protein
Where a SMILES comes first, the peptide text is derived from it. [ ]: non-standard residue; d: D form. The star is where a group is joined. d(aIle) = CC[C@H](C)[C@@H](N)C(=O)O; X1 = CC[C@H](C)CCCCC(=O)*; dDab = NCC[C@@H](N)C(=O)O; Dab = NCC[C@H](N)C(=O)O
value_kind: fraction unbound at 4 h, 10 µM
Form field (numeric): enter value without unit.

# input Would you mind telling me what fraction unbound at 4 h, 10 µM value was observed for CC[C@H](C)CCCCC(=O)NCC(=O)N[C@H](CCN)C(=O)NCC(=O)N[C@H](CO)C(=O)N[C@H](Cc1c[nH]c2ccccc12)C(=O)N[C@@H](CO)C(=O)N[C@@H](CCN)C(=O)N[C@H](CCN)C(=O)N[C@H](C(=O)N[C@@H](CCC(=O)O)C(=O)N[C@H](C(=O)N[C@@H](C(=O)N[C@@H](CO)C(=O)O)[C@@H](C)CC)[C@@H](C)CC)[C@@H](C)CC [Tridecaptin M, tridecaptin M] (X1-G[dDab]G[dS][dW]S[Dab][dDab]IEI[d(aIle)]S-OH) ?
# output 0.465
